test: FRG1 promoter luciferase signal modulators, primary screen, FRG1 inhibition for FSHD, cell-based, C2C12 myotubes, firefly/Renilla luciferase, luminescence (AID 1084); details: higher = more signal, called active from +8 up or from −8 down
Would you kindly list z-score for each of these molecules?
Just the number, please.

Kindly note the recorded z-score for "COC(=O)[C@@]1(Cc2ccc(OC)cc2)[C@H]2c3cc(C(=O)N4CCCC4)n(Cc4ccc(C)c(F)c4F)c3C[C@H]2CN1C(=O)c1ccccc1" , which is 0.352

Kindly note the recorded z-score for O=C(OCc1ccccc1)C1=CCC2c3[nH]c4ccccc4c3C(=O)C1N2S(=O)(=O)c1ccccc1[N+](=O)[O-] (centres undefined) , which is -4.32

Kindly note the recorded z-score for "COC(=O)[C@@]1(Cc2ccc(OC)cc2)[C@H]2c3cc(C(=O)N(C)C)n(Cc4ccc(S(C)(=O)=O)cc4)c3C[C@H]2CN1C(=O)c1ccccc1" , which is -1.49

Kindly note the recorded z-score for CCCCN1CC=CC23O[C@@H]4C=CCCOC(=O)C4[C@H]2C(=O)N(CCCCCCO)[C@@H]3C1=O (some centres undefined) , which is 0.357

* * *

experiment: small-molecule microarray binders of probe aShh, primary screen, biochemical, biotinylated probe, 635/667 nm fluorescence (AID 1114); details: higher = more signal;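 also: probe is biotin-labelled aShh protein from a stem cell growth factor screen; measures binding of labelled protein to compounds printed on the slide; score merges feature fluorescence at 667 nm with signal-to-noise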
Reported Metric: composite z-score
Just the number, please.

Kindly note the recorded composite z-score for CN1C(=O)C2C=CC(C(O)c3ccco3)N(Nc3ccccc3)C2C1=O (centres undefined) , which is 0.199

Kindly note the recorded composite z-score for "O=C(NCCN1CCOCC1)[C@@H]1c2ccccc2C(=O)N(C2CCCCC2)[C@H]1c1ccc(CO)cc1" , which is -0.138

Kindly note the recorded composite z-score for "CCOC(=O)C[C@H]1[C@H](OC(=O)c2ccc(C(=O)c3ccccc3)cc2)[C@@H](NC(=O)c2ccccc2)c2cc(OCCCO)ccc2N1C(=O)c1ccc2ccccc2n1" , which is -0.138

Kindly note the recorded composite z-score for "CN(C)CCCCCCNC(=O)[C@H]1C[C@H]2C(=O)N3CCC[C@H]3C(=O)N2[C@H]1c1ccc(O)cc1" , which is 0.178

Kindly note the recorded composite z-score for "CCOC(=O)[C@H]1C/C=C/C[C@H](C(=O)OCC)C(=O)O[C@H]2[C@@H](OC)O[C@H](CO)[C@@H](OC(=O)c3c(OC)cccc3OC)[C@@H]2OC1=O" , which is 0.244

Kindly note the recorded composite z-score for "CC(C)C[C@@H]1NC(=O)[C@@H]2C[C@H](C(=O)O)[C@H](c3cccc(OCCO)c3)N2C1=O" , which is -0.199

Kindly note the recorded composite z-score for "O=C1c2ccccc2[C@](Cc2ccccc2I)(C(=O)NCC(F)(F)F)[C@H](c2ccc(CO)cc2)N1Cc1ccccc1Cl" , which is 0.0632

Kindly note the recorded composite z-score for "CC(C)=CCN[C@H](CO)c1ccccc1" , which is 0.0048

Kindly note the recorded composite z-score for "C=C(CCCC)/C(=C/C[C@H](OC(=O)c1ccncc1)c1ccccc1OCCO)c1cnc2ccccc2c1" , which is -0.0977

Kindly note the recorded composite z-score for "O=C(NCCO)C1=C[C@H](Oc2ccccc2I)[C@@H](O)[C@H](N(Cc2ccco2)C(=O)Cc2ccccc2)C1" , which is -0.209

Kindly note the recorded composite z-score for "COCCCNC(=O)[C@@]1(C)c2ccccc2C(=O)N(C(C)C)[C@H]1c1ccc(CO)cc1" , which is -0.01

Kindly note the recorded composite z-score for "C=C[C@H](OC)[C@@H](OC(=O)Nc1ccc(OC)cc1)c1ccc(O)c(F)c1" , which is 0.0952

Kindly note the recorded composite z-score for "Cc1ccc(S[C@]2(C(=O)NCCCN(C)C)CC(=O)N(Cc3cc(C(F)(F)F)cc(C(F)(F)F)c3)[C@@H]2c2ccc(CO)cc2)cc1" , which is -0.0769

Kindly note the recorded composite z-score for "COCCOC(=O)N1C(=O)[C@@]2(c3ccccc31)[C@H](C(=O)N1CCc3cc(OC)c(OC)cc3C1)[C@H]1C(=O)O[C@H](c3ccccc3)[C@H](c3ccccc3)N1[C@@H]2c1ccc(OCCO)cc1" , which is -0.0863

Kindly note the recorded composite z-score for "C=CCNC(=O)[C@@H]1[C@H]2C(=O)O[C@H](c3ccccc3)[C@H](c3ccccc3)N2[C@H](c2ccc(O)cc2)[C@@]12C(=O)N(C(=O)OCCOC)c1ccc(C#CCNC(N)=O)cc12" , which is 1.68

Kindly note the recorded composite z-score for CC1CC/C=C\[C@H]2OC34C=CCN(C(C)(C)C)C(=O)[C@H]3N(C(C)CO)C(=O)[C@@H]4C2C(=O)O1 (some centres undefined) , which is -0.0011

Kindly note the recorded composite z-score for "[N-]=[N+]=NCc1ccccc1C[C@]1(C(=O)N2CCCCC2)N=C(c2ccc(OCCCO)cc2)O[C@H]1c1ccccc1N=[N+]=[N-]" , which is 0.417

Kindly note the recorded composite z-score for "O=C1C[C@@](C(=O)NC2CC2)(c2ccc([N+](=O)[O-])cc2)[C@@H](c2ccc(CO)cc2I)N1C1CCCCC1" , which is 0.0756

Kindly note the recorded composite z-score for C=C(C)[C@@H]1CC=C(C(O)C2C=CC3C(=O)N(c4ccccc4)C(=O)C3N2Nc2ccccc2)CC1 (some centres undefined) , which is 0.642

Kindly note the recorded composite z-score for "O=C1O[C@H](c2ccccc2)[C@H](c2ccccc2)N2[C@H]1[C@@H](C(=O)N1CCCCCCC1)[C@]1(C(=O)Nc3ccc(C#CC4=CCCCC4)cc31)[C@H]2c1ccc(OCCO)cc1" , which is 3.1

Kindly note the recorded composite z-score for "COc1ccc(C(=O)Nc2ccc(CN3C(=O)[C@]4(O[C@H](CCO)[C@@H]([Si](C)(C)c5ccc(OC)cc5)[C@@H]4C)c4ccccc43)cc2)cc1" , which is 0.014

Kindly note the recorded composite z-score for "COC(=O)[C@@]1(Cc2ccc(OC)cc2)[C@H]2c3cc(C(=O)N(C)C)n(C)c3C[C@H]2CN1C(=O)c1ccccc1" , which is 0.527

Kindly note the recorded composite z-score for "[N-]=[N+]=NCc1ccccc1C[C@]1(C(N)=O)COC(c2ccc(OCCCO)cc2)=N1" , which is -0.0441

Kindly note the recorded composite z-score for "C=C[C@@H](COC(=O)OC(C)(C)C)N(Cc1ccc(OC)cc1)S(=O)(=O)c1ccc(Br)cc1" , which is 0.0121

Kindly note the recorded composite z-score for "CCCC[C@@H]1C[C@H]1[C@@H](NC(=O)c1ccccc1)c1ccc(C(=O)OC)cc1" , which is -0.0849

Kindly note the recorded composite z-score for CC1(C)[C@@H]2CC(C(O)C3C=CC4C(=O)N(Cc5ccccc5)C(=O)C4N3n3cnnc3)=C[C@H]1C2 (some centres undefined) , which is -0.271

Kindly note the recorded composite z-score for "C=CCNC(=O)[C@@H]1[C@H]2C(=O)O[C@H](c3ccccc3)[C@H](c3ccccc3)N2[C@H](c2ccccc2OCCO)[C@@]12C(=O)N(C(=O)OCCOC)c1ccccc12" , which is 0.126

Kindly note the recorded composite z-score for "COC(=O)[C@@]1(CCC(=O)OC(C)(C)C)N=C(c2ccc(OCCCO)cc2)O[C@H]1c1ccccc1N=[N+]=[N-]" , which is 0.178

Kindly note the recorded composite z-score for "COC(=O)[C@@]1(Cc2ccc(F)cc2)[C@H]2c3cc(C(=O)N4CCCC4)n(CCCNc4ncc(C(F)(F)F)cc4Cl)c3C[C@H]2CN1C(=O)c1ccccc1" , which is 0.831
